// provenance: the supplement of paper PMC10065799

- Tested target: c-Src SH2;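 note: peptide library displayed on the E. coli surface as eCPX fusions, selected cells deep-sequenced, score is each peptide's frequency after selection divided by its frequency in the input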
- Procedure text: SH2 binding enrichment of the phosphorylated peptide, bacterial display (enrichment ratio); higher = better substrate or ligand; peptides without Tyr show the background
So basically: SH2 binding enrichment at 0.6 or higher? That is true. Lower than 0.6? That is false.

Recorded results for 5 sequences are shown here.
{"Biopolymer sequence": "AESPEYVHMYT [FAM111A_Y511]", "Qualitative label": "true"}
{"Biopolymer sequence": "KIKLNYTLPQD [NRAP_Y523_N519I]", "Qualitative label": "true"}
{"Biopolymer sequence": "FNDSAYNQQLI [ZPLD1_Y198_T197A_YF]", "Qualitative label": "false"}
{"Biopolymer sequence": "RLLRGHDQSAY [HLA-C_Y137_Y137H]", "Qualitative label": "true"}
{"Biopolymer sequence": "SVMAEYGLFAA [VSX2_Y219_G223A_YF]", "Qualitative label": "false"}

Incoming: Identify whether the reported SH2 binding enrichment of the following sequence is 0.6 or greater: IENKLCGMSDP [RET_Y1062_Y1062C]
Outgoing: false

Incoming: Another sequence to look at: CDFKKYGKGLR [ZNF445_Y433_Y428C_YF]
Outgoing: true

Incoming: Another sequence to look at: EHLNRYISDTF [TTLL10_Y446]
Outgoing: false
